Target: Hepatocyte Growth Factor (HGF), human (human, UniProt P14210 32-728)
Sequence (P14210 32-728): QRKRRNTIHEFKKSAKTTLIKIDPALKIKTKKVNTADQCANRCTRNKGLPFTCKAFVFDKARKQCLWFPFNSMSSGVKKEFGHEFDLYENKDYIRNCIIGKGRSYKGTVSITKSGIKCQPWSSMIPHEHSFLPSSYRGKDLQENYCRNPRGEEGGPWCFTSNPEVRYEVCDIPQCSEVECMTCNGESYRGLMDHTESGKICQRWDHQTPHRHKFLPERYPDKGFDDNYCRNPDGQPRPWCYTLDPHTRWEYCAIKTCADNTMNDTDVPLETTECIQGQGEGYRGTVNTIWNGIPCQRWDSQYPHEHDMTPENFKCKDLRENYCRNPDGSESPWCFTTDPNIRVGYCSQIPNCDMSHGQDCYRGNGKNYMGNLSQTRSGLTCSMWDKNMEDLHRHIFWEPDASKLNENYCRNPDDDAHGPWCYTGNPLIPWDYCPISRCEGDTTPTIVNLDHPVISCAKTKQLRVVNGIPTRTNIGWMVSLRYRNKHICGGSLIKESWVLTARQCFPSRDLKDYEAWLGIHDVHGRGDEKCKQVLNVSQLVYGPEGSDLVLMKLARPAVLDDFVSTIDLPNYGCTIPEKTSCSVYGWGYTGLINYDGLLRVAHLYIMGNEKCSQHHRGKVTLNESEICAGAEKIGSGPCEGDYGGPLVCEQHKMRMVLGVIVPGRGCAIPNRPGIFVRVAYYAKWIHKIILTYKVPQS
Assay: ELISA
MEASUREMENT KIND: pEC50
Answer as the number alone; pEC50 is minus log10 of concentration in mol/L.

Please give measured pEC50 of the following entry: HC 2/SLC 5 (antibody) chain 1: GQGTLVTVSSASQPVLHQPPAMSSALGTTIRLTCTLRNDHDIGVYSVYWYQQRPGHPPRFLLRYFSQSDKSQGPQVPPRFSGSKDVARNRGYLSISELQPEDEAMYYCAMGARSRCWPRGFQSKHNSVTHVFGSGTQLTVLSQPKATPSVTLFPPSSEELQANKATLVCLMNDFYPGILTVTWKADGTPITQGVEMTTPSKQSNNKYAASSYLSLTPEQWRSRRSYSCQVMHEGSTVEKTVAPAECS chain 2: MSWAPVLLMLFVYCTGCGPQPVLHQPPAMSSALGTTIRLTCTLRNDHDIGVYSVYWYQQRPGHPPRFLLRYFSQSDKSQGPQVPPRFSGSKDVARNRGYLSISVTHVFGSGTQLTVLSQPKAQVQLVQ
10.28

Reference for the values: patent US20150045540A1
